assay.target: H1N1 neuraminidase (NA), group-1 (Influenza A virus)
Sequence (P03468 36-454 limits assumed): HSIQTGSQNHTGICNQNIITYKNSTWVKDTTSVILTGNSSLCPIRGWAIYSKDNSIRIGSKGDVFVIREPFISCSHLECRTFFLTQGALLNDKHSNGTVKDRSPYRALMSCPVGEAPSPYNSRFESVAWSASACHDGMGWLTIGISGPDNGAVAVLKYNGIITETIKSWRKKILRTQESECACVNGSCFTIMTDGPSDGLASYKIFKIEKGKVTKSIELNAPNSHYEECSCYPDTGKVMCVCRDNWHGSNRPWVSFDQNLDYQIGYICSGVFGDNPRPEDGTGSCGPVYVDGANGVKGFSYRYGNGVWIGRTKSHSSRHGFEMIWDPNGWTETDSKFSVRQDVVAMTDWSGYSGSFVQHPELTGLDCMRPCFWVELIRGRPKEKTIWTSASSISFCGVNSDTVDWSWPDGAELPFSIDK
pIC50: −log10 of the molar value.
If the reported pIC50 equals or exceeds 6, assign Condition met. If not, assign Condition not met.

- CCC(CC)O[C@@H]1C=C(C(=O)O)C[C@H](NCc2ccc(N3CCC[C@H]3C)cc2)[C@H]1NC(C)=O: Condition met
- CCC(CC)O[C@@H]1C=C(C(=O)O)C[C@H](NCc2ccc(-c3cnc(Cl)nc3)cc2)[C@H]1NC(C)=O: Condition not met
- CCC(CC)O[C@@H]1C=C(C(=O)O)C[C@H](NCc2ccc(N3CC4CC4C3)cc2)[C@H]1NC(C)=O (some centres unmarked): Condition met
- CCC(CC)O[C@@H]1C=C(C(=O)O)C[C@H](NCc2ccc(N3CC4CCCCC4C3)cc2)[C@H]1NC(C)=O (some centres unmarked): Condition met
- CCC(CC)O[C@@H]1C=C(C(=O)O)C[C@H](NCc2ccc(-c3cncnc3)cc2)[C@H]1NC(C)=O: Condition not met
- CCC(CC)O[C@@H]1C=C(C(=O)O)C[C@H](NCc2ccc(N3CCC4(CC3)CN(C(=O)OC(C)(C)C)C4)cc2)[C@H]1NC(C)=O: Condition not met
- CCC(CC)O[C@@H]1C=C(C(=O)O)C[C@H](NCc2ccc(N3CC4C(C3)C4(C)C)cc2)[C@H]1NC(C)=O (some centres unmarked): Condition met
- CCC(CC)O[C@@H]1C=C(C(=O)O)C[C@H](NCc2ccc(-c3c(C)nc(N)nc3C)cc2)[C@H]1NC(C)=O: Condition not met
